Tested on: HL-60(TB) leukemia
test.details: NCI-60 one-dose screen, 48 h (100 = growth as untreated, 0 = no growth, -100 = all killed)
measurement.parameters: 10 µM unless noted
Description: Growth inhibition of the HL-60(TB) human tumor cell line is measured as a screen for anti-cancer activity. Cells are grown in 96 well plates and exposed to the test compound for 48 hours. Compounds are tested at a single concentration, which is 10^-5 M for most compounds. The reported endpoint is percent growth (GI% or GIPRCNT), where numbers from 0 - 100% represent growth inhibition, and numbers from -100% - 0 represent cell death. For example, a value of 40 represents 60% growth inhibition. […]
Compounds without any hit were thinned out: in the full panel of roughly 83,000, 20% have a hit.
property.label: growth (%)
Write down the numeric answer in % and omit the unit.

Any idea what its growth is? The compound is Clc1ccc(-c2cc(-c3ccccc3)nc(NCCNc3ccnc4cc(Cl)ccc34)n2)cc1
-31.9

CC[C@@H](C(=O)[C@@H](C)[C@@H](O)[C@H](C)[C@@H]1O[C@@H]([C@@H](CC)C(=O)ONC(=O)c2ccccc2O)CC[C@@H]1C)C1O[C@]2(C=CC(=O)[C@]3(CC[C@@](C)([C@H]4CC[C@](O)(CC)[C@H](C)O4)O3)O2)[C@H](C)C[C@@H]1C (stereo partly drawn) , same question.
-45.7

Record: Fc1ccc2c(c1)c(-c1nc(-c3c[nH]c4ncccc34)cs1)cn2CCCN1CCOCC1
21.9

###

Tested on: UACC-62 melanoma
test.details: NCI-60 one-dose screen, 48 h
measurement.parameters: 10 µM unless noted
This is part of a sample that, as a whole, favours compounds with a hit. Of some 83,000 tested, about 20% had one in any assay. Activity calls are given as the source filed them. The calls were made as follows: active = growth percent below 10; inactive = the rest.
Log the outcome using a class from active, inactive

// param item: O=C(c1cccs1)C1NO[N+]([O-])=C1c1cccs1 (stereo not given) ; yields the recorded call
inactive

Entry to check: Cc1cc(N(CCCl)CCCl)ccc1C=Nc1ccc2ccccc2c1
inactive

Cool, now CC1(C)CC2(CC(C)(C)c3cc(O)c(O)cc32)c2cc(O)c(O)cc21
inactive

Try the molecule O=C1NC(=O)C(O)(C2(O)C(=O)NC(=O)NC2=O)C(=O)N1
inactive

Here is the next molecule: COc1ccc(/C=C(/C(=O)N2CCCC2)c2cc(OC)c(OC)c(OC)c2)cc1N
inactive

Queued: COc1cc(C2=NN(c3ccccc3)C(c3sc(N(CCCl)CCCl)nc3Cl)C2)cc(OC)c1OC (stereo not given)
inactive

Note, next up: N#[N+]c1nc2nc(N)[nH]c(=O)c2[nH]1
inactive

Cool, now COc1ccc(C(c2ccc(OC)cc2)C(Cl)(Cl)Cl)cc1
inactive

Let us now turn to CCC(C)[C@H]1O[C@]2(C=C[C@@H]1C)C[C@@H]1C[C@@H](C/C=C(\C)[C@@H](OC3C[C@H](OC)C(O[C@H]4C[C@H](OC)[C@@H](O)[C@H](C)O4)[C@H](C)O3)[C@@H](C)/C=C/C=C3\CO[C@@H]4[C@H](O)C(C)=C[C@@H](C(=O)O1)[C@]34O)O2 (stereo not given in full)
active

Note, next up: O=C(N/N=C/c1ccc([N+](=O)[O-])o1)c1cc([N+](=O)[O-])cc([N+](=O)[O-])c1O
inactive
